- System: recombinant CRKP TrxR
- experiment.description: Inhibition of recombinant CRKP TrxR
- Format: biochemical, Klebsiella pneumonia
- protocol.conditions: read-out: IC50, recombinant CRKP TrxR; DTNB reduction assay
measured.metric: IC50 (µM)
# number only, unit µM dropped from output

q: State, in one line, measured IC50 of CC(=O)OC[C@H]1O[C@@H]([S-])[C@H](OC(C)=O)[C@@H](OC(C)=O)[C@@H]1OC(C)=O.CCP(CC)CC.[Au+]
a: 27.2
